FYI, the data here is from paper PMC6781499.

assay: Pharmacokinetics of Ewha-18278 after IV and oral administration to rats (non-compartmental analysis, HPLC/UV plasma assay); assay type: in vivo, Sprague-Dawley rats; settings: male, Sprague-Dawley, rat, plasma, po, 20 mg/kg, PO 20 mg/kg, diazepam injection-based formulation (2 mg/mL)

{"structure string": "CCCc1c(-c2ccccc2)nn(-c2ccccn2)c1O", "unit descriptor": "L", "Vd/F": 7.9}

====

assay: Pharmacokinetics of Ewha-18278 after IV and oral administration to rats (non-compartmental analysis, HPLC/UV plasma assay); assay type: in vivo, Sprague-Dawley rats; settings: male, Sprague-Dawley, rat, plasma, iv, 2 mg/kg, IV 2 mg/kg, DMSO formulation (1 mg/mL)
measurement kind: AUC(0-inf) (ng·h/mL)

{"compound": "CCCc1c(-c2ccccc2)nn(-c2ccccn2)c1O [Ewha-18278]", "measured number": 2860}

====

assay: Pharmacokinetics of Ewha-18278 after IV and oral administration to rats (non-compartmental analysis, HPLC/UV plasma assay); assay type: in vivo, Sprague-Dawley rats; settings: male, Sprague-Dawley, rat, plasma, po, 20 mg/kg, PO 20 mg/kg, diazepam injection-based formulation (2 mg/mL)

{"structure string": "CCCc1c(-c2ccccc2)nn(-c2ccccn2)c1O", "unit descriptor": "ng/mL", "Cmax": 6240}

====

assay: Pharmacokinetics of Ewha-18278 after IV and oral administration to rats (non-compartmental analysis, HPLC/UV plasma assay); format: in vivo, Sprague-Dawley rats; settings: male, Sprague-Dawley, rat, plasma, po, 20 mg/kg, PO 20 mg/kg, DMSO formulation (2 mg/mL)
measurement kind: Tmax (min)

{"compound": "CCCc1c(-c2ccccc2)nn(-c2ccccn2)c1O [Ewha-18278]", "measured number": 14.9}

====

experiment: Pharmacokinetics of Ewha-18278 after IV and oral administration to rats (non-compartmental analysis, HPLC/UV plasma assay); assay type: in vivo, Sprague-Dawley rats; details: male, Sprague-Dawley, rat, plasma, IV 2 mg/kg, DMSO formulation (1 mg/mL)

{"structure string": "CCCc1c(-c2ccccc2)nn(-c2ccccn2)c1O", "C0 (ng/mL)": 7240}

====

test: Pharmacokinetics of Ewha-18278 after IV and oral administration to rats (non-compartmental analysis, HPLC/UV plasma assay); format: in vivo, Sprague-Dawley rats; details: male, Sprague-Dawley, rat, plasma, po, 20 mg/kg, PO 20 mg/kg, diazepam injection-based formulation (1 mg/mL)
measurement kind: Vd/F

{"compound": "CCCc1c(-c2ccccc2)nn(-c2ccccn2)c1O [Ewha-18278]", "measurement kind": "Vd/F", "result": "9.72 L"}

====

assay: Pharmacokinetics of Ewha-18278 after IV and oral administration to rats (non-compartmental analysis, HPLC/UV plasma assay); format: in vivo, Sprague-Dawley rats; conditions: male, Sprague-Dawley, rat, plasma, iv, 2 mg/kg, IV 2 mg/kg, DMSO formulation (1 mg/mL)
measurement kind: half-life (h)

{"structure string": "CCCc1c(-c2ccccc2)nn(-c2ccccn2)c1O", "measurement kind": "half-life", "unit descriptor": "h", "measured number": 3.07}

====

assay: Pharmacokinetics of Ewha-18278 after IV and oral administration to rats (non-compartmental analysis, HPLC/UV plasma assay); assay type: in vivo, Sprague-Dawley rats; details: male, Sprague-Dawley, rat, plasma, po, 20 mg/kg, PO 20 mg/kg, diazepam injection-based formulation (2 mg/mL)

{"molecule": "CCCc1c(-c2ccccc2)nn(-c2ccccn2)c1O [Ewha-18278]", "half-life (h)": 8.96}
